- test description: Solubility in buffers of various pH
- Format: physicochemical
- condition summary: buffer, aqueous buffer; pH 2.0; read-out: Experimental Solubility pH 2.0
observable: solubility (µM)
Kindly answer with a numeric value in µM, unit omitted.

Ask: Need solubility, item CCOc1ccc2cc(-c3nn(CC4CCNCC4)c4ncnc(N)c34)ccc2c1
Reply: 34

Ask: Recorded solubility of CC(C)COc1ccc2cc(-c3nn(CC4CCNCC4)c4ncnc(N)c34)ccc2c1 , please.
Reply: 47

Ask: Which solubility is listed for CC(C)(C)n1nc(-c2ccc3ccccc3c2)c2c(N)ncnc21 ?
Reply: 43

More entries:
Ask: Which measured solubility value corresponds to COc1ccc2cc(-c3nn(CC4CCNCC4)c4ncnc(N)c34)ccc2c1 ?
Reply: 49
